Origin of measurements: paper PMC5540273

Reported %Inh values are given for each entry in this list.
Tested on: BLK
conditionSummary: concentration: 1 μM, replicates: in singlicate; n = 1;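 also: KINOMEscan kinase panel screen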
Write the numeric value and append its unit.

Consider the following illustrative entries.
[
  {
    "compound": "O=C(O)C(F)(F)F.O=C(O)C(F)(F)F.O=c1[nH]ccc2nc(N[C@@H]3CCCNC3)nc(Nc3ccc(S(=O)(=O)N4CCOCC4)cc3)c12 [GSK2177277]",
    "targetOrSystem": "BLK",
    "%Inh": "95.6%"
  },
  {
    "compound": "CCn1c(-c2nonc2N)nc2c(C#CC(C)(C)O)nc(OC[C@H](N)c3ccccc3)cc21 [GSK943949]",
    "targetOrSystem": "BLK",
    "%Inh": "0%"
  }
]

Query string: Any idea what its %Inh is? The compound is Cl.Cl.NCC(NCc1ccc(-c2ccnc3[nH]ccc23)s1)c1ccccc1 (stereo not drawn) [GSK1321565]
Result string: 0%

Query string: Any idea what its %Inh is? The compound is C[C@@H](Oc1cc(-n2cnc3cc(-c4ccnc(NCCS(C)(=O)=O)c4)ccc32)sc1C(N)=O)c1ccccc1Cl [GSK907232]
Result string: 30%

Query string: Any idea what its %Inh is? The compound is Fc1ccc(-c2ncn(C3CCNCC3)c2-c2ccnc(Oc3ccc(-c4ccccc4)cc3)n2)cc1 [SB-245391]
Result string: 20%

Query string: Any idea what its %Inh is? The compound is Cl.Cl.NCC(C(=O)Nc1cc(Br)c(-c2ccnc3[nH]ccc23)s1)c1ccccc1 (stereo not drawn) [GSK1269851]
Result string: 0%

Query string: Any idea what its %Inh is? The compound is Cl.NC(=O)c1cccc(Nc2nccc(Nc3ccc(Oc4c(Cl)cccc4Cl)c(Cl)c3)n2)c1 [GW659009]
Result string: 45%

====

Reported %Inh values are given for each entry in this list.
System: EPHA3
conditionSummary: concentration: 1 μM, replicates: in singlicate; n = 1
Give just the numeric value; % need not be written.

Consider the following illustrative entries.
[
  {
    "molecule": "COCCOCCOc1cc2ncc3c4ccc(C#N)cc4[nH]c3c2cc1OC",
    "unitTag": "%",
    "%Inh": 0
  },
  {
    "molecule": "Cc1cccc(NC(=O)Nc2ccc(Oc3ncnc4ccn(C)c34)cc2)c1",
    "unitTag": "%",
    "%Inh": 17
  },
  {
    "molecule": "COc1cccc(C2=C(Nc3ccc(Cl)c(C(=O)O)c3)C(=O)NC2=O)c1 [SB-390769]",
    "unitTag": "%",
    "%Inh": 0
  },
  {
    "molecule": "O=c1[nH]cc(-c2ccc(N3CCOCC3)cc2)c2sc(-c3cn[nH]c3)cc12 [GSK2276055]",
    "unitTag": "%",
    "%Inh": 30
  }
]

Query string: Any idea what its %Inh is? The molecule is COc1cc2c(cc1OCCN1CCNCC1)ncc1c3ccc(C#N)cc3[nH]c21
Result string: 0

Query string: Any idea what its %Inh is? The molecule is CN1CCN(Cc2cccc(-c3ccc4c(Nc5ccc(Oc6ccccc6)cc5)ccnc4c3)c2)CC1 [GW578342]
Result string: 3

Query string: Any idea what its %Inh is? The molecule is COc1ccc(Nc2nccc(N3CCC(NC(=O)Nc4cccc(OC)c4)C3)n2)cc1 (centres unmarked) [GSK1379742]
Result string: 0

Query string: Any idea what its %Inh is? The molecule is Cl.Cl.NCC(NCc1ccc(-c2ccnc3[nH]ccc23)s1)c1ccccc1 (centres unmarked) [GSK1321565]
Result string: 0

Query string: Any idea what its %Inh is? The molecule is CN(C)Cc1ccc(-c2ccc3c(Nc4ccc(Oc5ccccn5)cc4)ccnc3c2)o1 [GW567148]
Result string: 0

Query string: Any idea what its %Inh is? The molecule is COc1cccc(NC(=O)NC2CCN(c3ccnc(Nc4cc(OC)c(OC)c(OC)c4)n3)C2)c1 (centres unmarked) [GSK1379763]
Result string: 0
